This collection of values is drawn from patent US9073855B2.

Subject of test: GST-Bcl-XL (Homo sapiens, UniProt Q07817)
Sequence (Q07817 whole entry): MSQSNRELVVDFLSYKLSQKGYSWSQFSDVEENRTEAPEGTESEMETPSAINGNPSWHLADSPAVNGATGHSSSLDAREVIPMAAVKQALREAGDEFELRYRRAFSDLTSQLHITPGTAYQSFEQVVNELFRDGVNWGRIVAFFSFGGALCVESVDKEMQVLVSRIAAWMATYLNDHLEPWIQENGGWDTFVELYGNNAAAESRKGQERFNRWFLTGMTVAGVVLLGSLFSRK
Assay info: TR-FRET binding assay, GST-Bcl-XL with F-Bak peptide probe
Measurement setup: TR-FRET Binding Affinity, GST-Bcl-XL, F-Bak peptide probe
Assay endpoint: Ki (nM)
Provide the reading as a plain figure in nM.

[
  {
    "Compound": "COc1ccc(C2=C(CN3CCN(c4ccc(C(=O)NS(=O)(=O)c5ccc(NCCCN6CCCC6)c([N+](=O)[O-])c5)c(Oc5cccc6[nH]ccc56)c4)CC3)CCC(C)(C)C2)cc1 [Example 68]",
    "Reported result": 14
  },
  {
    "Compound": "CC1(C)CCC(CN2CCN(c3ccc(C(=O)NS(=O)(=O)c4ccc(NCCN5CCNC(=O)C5)c([N+](=O)[O-])c4)c(Oc4cccc5[nH]ccc45)c3)CC2)=C(c2ccc(Cl)cc2)C1 [Example 280]",
    "Reported result": 195
  },
  {
    "Compound": "CN(C)CCCNc1ccc(S(=O)(=O)NC(=O)c2ccc(N3CCN(CC4=C(c5ccc(Cl)cc5)CCC(C)(C)C4)CC3)cc2Oc2cccc3[nH]ccc23)cc1[N+](=O)[O-] [Example 56]",
    "Reported result": 12.9
  }
]

Reported Ki for CN1CCC(Nc2ccc(S(=O)(=O)NC(=O)c3ccc(N4CCN(CC5=C(c6ccc(Cl)cc6)CC(C)(C)CC5)CC4)cc3Oc3cccc4[nH]ccc34)cc2[N+](=O)[O-])CC1 [Example 103] was 117

Reported Ki for CC1(C)CCC(CN2CCN(c3ccc(C(=O)NS(=O)(=O)c4ccc(NCC5CCOCC5)c([N+](=O)[O-])c4)c(Oc4cccc5[nH]cnc45)c3)CC2)=C(c2ccc(Cl)cc2)C1 [Example 403] was 24.3

Reported Ki for CC1(C)CCC(CN2CCN(c3ccc(C(=O)NS(=O)(=O)c4ccc(NCC5CN(C6COC6)CCO5)c([N+](=O)[O-])c4)c(Oc4cccc5[nH]cnc45)c3)CC2)=C(c2ccc(Cl)cc2)C1 (stereo not shown) [Example 433] was 2.29

Reported Ki for CC1(C)CCC(CN2CCN(c3ccc(C(=O)NS(=O)(=O)c4cnc(OCC5(F)CCOCC5)c(F)c4)c(Oc4cccc5[nH]ncc45)c3)CC2)=C(c2ccc(Cl)cc2)C1 [Example 416] was 59.1

----------
Subject of test: GST-Bcl-2 (Homo sapiens, UniProt P10415)
Sequence (P10415 whole entry): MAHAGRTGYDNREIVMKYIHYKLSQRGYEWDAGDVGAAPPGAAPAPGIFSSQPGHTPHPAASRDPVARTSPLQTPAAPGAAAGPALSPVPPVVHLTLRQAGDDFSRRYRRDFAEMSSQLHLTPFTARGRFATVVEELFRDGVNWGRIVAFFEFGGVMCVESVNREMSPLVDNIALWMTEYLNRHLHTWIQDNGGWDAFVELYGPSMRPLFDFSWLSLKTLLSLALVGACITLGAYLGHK
Assay info: TR-FRET binding assay, GST-Bcl-2 with F-Bak peptide probe
Measurement setup: TR-FRET Binding Affinity
Assay endpoint: pKi
The scale used: pKi is minus the common logarithm of the concentration in molar units.

Reported pKi for "CC1(C)CC(c2ccc(Cl)cc2)=C(CN2CCN(c3ccc(C(=O)NS(=O)(=O)c4ccc(OCC5(F)CCOCC5)c(Cl)c4)c(Oc4cccc5[nH]ncc45)c3)CC2)CO1" was 10.11

Reported pKi for "CC1(C)CCC(CN2CCN(c3ccc(C(=O)NS(=O)(=O)c4ccc(OCC5(F)CCOCC5)c([N+](=O)[O-])c4)c(Oc4cccc5[nH]nnc45)c3)CC2)=C(c2ccc(Cl)cc2)C1" was 10.92

Reported pKi for "CC1(C)CCC(CN2CCN(c3ccc(C(=O)NS(=O)(=O)c4cnc(OCC5(O)CCC(F)(F)CC5)c(Cl)c4)c(Oc4cccc5[nH]ncc45)c3)CC2)=C(c2ccc(Cl)cc2)C1" was 8.94
